Values compiled from patent US9902739B2.

Molecular target: GRK6, recombinant full-length GST-tagged human protein (Homo sapiens, UniProt P43250)
Construct: Enzyme: 20 nM GRK6, recombinant full-length GST-tagged human protein; GST
Sequence (P43250 whole entry): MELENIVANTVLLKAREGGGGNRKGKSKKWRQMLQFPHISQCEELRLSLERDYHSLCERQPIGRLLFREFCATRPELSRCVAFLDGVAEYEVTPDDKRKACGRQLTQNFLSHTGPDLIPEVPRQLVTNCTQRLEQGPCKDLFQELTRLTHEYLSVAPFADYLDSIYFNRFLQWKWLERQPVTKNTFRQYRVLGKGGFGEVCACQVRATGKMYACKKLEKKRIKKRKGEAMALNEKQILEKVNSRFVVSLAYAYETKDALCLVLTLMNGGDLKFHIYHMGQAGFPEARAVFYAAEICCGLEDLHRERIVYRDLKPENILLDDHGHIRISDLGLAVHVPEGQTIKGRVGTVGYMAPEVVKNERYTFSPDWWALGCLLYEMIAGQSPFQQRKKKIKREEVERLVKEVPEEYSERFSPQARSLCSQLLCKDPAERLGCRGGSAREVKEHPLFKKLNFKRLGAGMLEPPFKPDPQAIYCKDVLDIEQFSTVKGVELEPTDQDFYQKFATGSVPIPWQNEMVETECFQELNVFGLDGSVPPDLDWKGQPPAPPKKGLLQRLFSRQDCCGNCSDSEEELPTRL
Assay: GRK6 assay, IC50 determination (8-point concentration-response)
Format: biochemical
Settings: Series 2 (Table 12); conditions as Example 18
Method: The following assay conditions were used. Buffer: 50 mM TRIS-HCl, pH 7.5, 5 mM MgCl2, 2 mM DTT, 0.01% Triton X-100, 10 μM Na3VO4, 10 μM b-GP, 1% DMSO Enzyme: 20 nM GRK6, recombinant full-length GST-tagged human protein Peptide substrate (Peptide 216): 1 μM One hundred two compounds (1-1-1-102) were further characterized by determining IC50 values in a GRK6 assay. This screen has been previously described in WO 2013/063458, which is incorporated by reference in its entirety herein. […]
In this section, each of the compounds is paired with its reported pIC50.
Scale for pIC50: -log10 of concentration given in mol/L; no unit attached.

[[record]]
compound = "O=C(O)CSc1cc(-c2ccc(Br)o2)[nH]n1 [Compound 2-11]"
value_type = "pIC50"
value_measured = 5.26


Okay, now this compound:
The recorded pIC50 for O=C(O)CSc1cc(-c2ccc(-c3ccc(Cl)c(Cl)c3)o2)[nH]n1 [Compound 2-3] is 6.32
